Molecular target: glutathione-S-transferase (GST) tagged LXRalpha LBD (ligand binding domain) (Homo sapiens)
Construct: purchased Invitrogen pv4655
Sequence (Q13133 209-447 limits assumed): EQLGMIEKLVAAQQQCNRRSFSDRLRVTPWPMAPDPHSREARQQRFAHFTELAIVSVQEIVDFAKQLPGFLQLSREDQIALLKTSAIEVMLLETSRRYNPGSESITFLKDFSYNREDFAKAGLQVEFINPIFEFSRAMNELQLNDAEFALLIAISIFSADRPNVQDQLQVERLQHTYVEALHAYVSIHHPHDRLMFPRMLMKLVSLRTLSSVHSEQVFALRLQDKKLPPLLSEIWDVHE
Experiment: LanthaScreen TR-FRET Liver X Receptor Coactivator Assay, LXR alpha
Format: biochemical
Conditions: potency (Inflection Point) of compound-induced co-activator recruitment, TR-FRET
Procedure: While running the LanthaScreen™ TR-FRET Liver X Receptor Coactivator Assay, LXR alpha-LBD or LXR beta-LBD was added to ligand test compounds followed by addition of a mixture of a fluorescein-labelled coactivator peptide and terbium-conjugated anti-GST antibody. After an incubation period at room temperature, TR-FRET (time-resolved fluorescence resonance energy transfer) was measured using a filter-based instrument capable of TR-FRET, e.g. PerkinElmer Envision.
EXPERIMENTAL ENDPOINT: LXR alpha IP (nM)

Solved entries:
Name the recorded LXR alpha IP (nM) for CN(C)C(=O)c1ccc(CCCCCC2CCN(C(=O)C(O)(c3ccccc3)C(F)(F)F)CC2)cc1Cl (single isomer, unassigned) [Example 15-9] .
No IP

Item: COc1cccc([C@@](O)(C(=O)N2CCC(CCCC(C)Nc3ccc(C(=O)N(C)C)c(Cl)c3)CC2)C(F)(F)F)c1 (single isomer, unassigned) [Example 4-5]
No IP

Item: COc1cccc([C@@](O)(C(=O)N2CCC(CC3CC(Nc4ccc(C(=O)N(C)C)c(Cl)c4)C3)CC2)C(F)(F)F)c1 (single isomer, unassigned) [Example 11-1]
No IP

Item: CNC(=O)c1ccc(NCCCCC2CCN(C(=O)C(O)(c3cccc(OC(F)(F)F)c3)C(F)(F)F)CC2)cc1Cl (single isomer, unassigned) [Example 1-9]
No IP

Continue with the compound presented below.
Name the recorded LXR alpha IP (nM) for CN(C)C(=O)c1ccc(SC2CCC3(CC2)CCN(C(=O)C(O)(c2cc(Cl)cc(Cl)c2)C(F)(F)F)CC3)cc1Cl (single isomer, unassigned) [Example 19-2] .
No IP

* * *

target: glutathione-S-transferase (GST) tagged LXRalpha LBD (ligand binding domain) (Homo sapiens, UniProt Q13133); construct: purchased Invitrogen pv4655; test: LanthaScreen TR-FRET Liver X Receptor Coactivator Assay, LXR alpha; type: biochemical; details: LXR alpha IP (nM), potency (Inflection Point) of compound-induced co-activator recruitment, TR-FRET
EXPERIMENTAL ENDPOINT: EC50 (nM)
Record the value in nM, omitting the unit from your answer.

Name the recorded EC50 for COc1cccc([C@@](O)(C(=O)N2CCC3(CC2)CC(CCCc2ccc(C(=O)N(C)C)c(Cl)c2)C3)C(F)(F)F)c1 (single isomer, unassigned) .
1540

Item: CN(C)C(=O)c1ccc(NCCCCC2CCN(C(=O)C(O)(c3ccccc3)C(F)(F)F)CC2)nc1Cl (stereo not shown)
1250

Item: CNC(=O)c1ccc(NCCCCC2CCN(C(=O)C(O)(c3cccc(OC)c3)C(F)(F)F)CC2)cc1Cl (single isomer, unassigned)
577

Item: CN(C)C(=O)c1ccc(CCCC2CCN(C(=O)C(O)(c3ccccc3)C(F)(F)F)CC2)cc1Cl (single isomer, unassigned)
1310

* * *

Entries and their EC50
target: glutathione-S-transferase (GST) tagged LXRbeta LBD (ligand binding domain) (Homo sapiens, UniProt P55055); construct: purchased Invitrogen pv4658.pps; test: LanthaScreen TR-FRET Liver X Receptor Coactivator Assay, LXR beta; format: biochemical; conditions: potency (Inflection Point) of compound-induced co-activator recruitment, TR-FRET; read-out: LXR beta IP
Record the value in nM, omitting the unit from your answer.

Solved entries:
Name the recorded EC50 for CC(CCCC1CCN(C(=O)[C@](O)(c2cccc(Cl)c2)C(F)(F)F)CC1)Nc1ccc(C(=O)N(C)C)c(Cl)c1 (single isomer, unassigned) .
7

Item: CNC(=O)c1ccc(NCCC[C@@H]2CC23CCN(C(=O)[C@@](O)(C(C)C)C(F)(F)F)CC3)cc1Cl (single isomer, unassigned)
9

Item: CCOc1cccc(C(O)(C(=O)N2CCC3(CCC(Sc4ccc(C(=O)N(C)C)c(Cl)c4)CC3)CC2)C(F)(F)F)c1 (single isomer, unassigned)
136

***
Name the recorded EC50 for COc1cccc(C(O)(C(=O)N2CCC3(CCC(Nc4ccc(C(=O)N(C)C)c(Cl)c4)CC3)CC2)C(F)(F)F)c1 (single isomer, unassigned) .
73

Item: CNC(=O)c1ccc(NCCCCC2CCN(C(=O)C(O)(c3ccccc3)C(F)(F)F)CC2)cc1Cl (single isomer, unassigned)
9

* * *

Molecular target: glutathione-S-transferase (GST) tagged LXRalpha LBD (ligand binding domain) (Homo sapiens, UniProt Q13133)
Construct: purchased Invitrogen pv4655
Test: LanthaScreen TR-FRET Liver X Receptor Coactivator Assay, LXR alpha
Type: biochemical
Conditions: read-out: LXR alpha actiivty at max dose (%)
Method: While running the LanthaScreen™ TR-FRET Liver X Receptor Coactivator Assay, LXR alpha-LBD or LXR beta-LBD was added to ligand test compounds followed by addition of a mixture of a fluorescein-labelled coactivator peptide and terbium-conjugated anti-GST antibody. After an incubation period at room temperature, TR-FRET (time-resolved fluorescence resonance energy transfer) was measured using a filter-based instrument capable of TR-FRET, e.g. PerkinElmer Envision.
Emax vs 5%: at or above is y, below is n.

Does Emax meet or surpass 5% for CNC(=O)c1ccc(NCCCCC2CCN(C(=O)C(O)(c3cccc(OC)c3)C(F)(F)F)CC2)cc1Cl (single isomer, unassigned) ?
y

* * *

target: glutathione-S-transferase (GST) tagged LXRalpha LBD (ligand binding domain) (Homo sapiens, UniProt Q13133); construct: purchased Invitrogen pv4655; test: LanthaScreen TR-FRET Liver X Receptor Coactivator Assay, LXR alpha; type: biochemical; details: potency (Inflection Point) of compound-induced co-activator recruitment, TR-FRET; read-out: LXR alpha IP
EXPERIMENTAL ENDPOINT: EC50 (nM)
Record the value in nM, omitting the unit from your answer.

Name the recorded EC50 for COc1cccc(C(O)(C(=O)N2CCC3(CCC(Cc4ccc(C(=O)N(C)C)c(Cl)c4)CC3)CC2)C(F)(F)F)c1 (single isomer, unassigned) .
739

***
Name the recorded EC50 for CN(C)C(=O)c1ccc(N(C)CCC[C@@H]2CC23CCN(C(=O)[C@](O)(c2ccccc2)C(F)(F)F)CC3)cc1Cl (single isomer, unassigned) .
683

Item: CN(C)C(=O)c1ccc(CCCCCC2CCN(C(=O)C(O)(c3ccccc3)C(F)(F)F)CC2)cc1Cl (single isomer, unassigned)
236

* * *

Molecular target: glutathione-S-transferase (GST) tagged LXRbeta LBD (ligand binding domain) (Homo sapiens)
Construct: purchased Invitrogen pv4658.pps
Sequence (P55055 222-460 limits assumed): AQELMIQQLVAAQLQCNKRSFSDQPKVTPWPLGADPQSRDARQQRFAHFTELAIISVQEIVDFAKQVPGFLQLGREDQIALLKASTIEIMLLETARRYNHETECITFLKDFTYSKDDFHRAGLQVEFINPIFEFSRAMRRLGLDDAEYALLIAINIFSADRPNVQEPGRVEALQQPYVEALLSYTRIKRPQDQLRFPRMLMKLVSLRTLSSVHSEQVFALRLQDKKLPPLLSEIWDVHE
Assay: LanthaScreen TR-FRET Liver X Receptor Coactivator Assay, LXR beta
Type: biochemical
Conditions: efficacy (Emax) in relation to reference dual agonist T0901317; read-out: LXR beta actiivty at max dose (%)
EXPERIMENTAL ENDPOINT: Emax (%)
Record the value in %, omitting the unit from your answer.

Checklist item: Emax tested on glutathione-S-transferase (GST) tagged LXRbeta LBD (ligand binding domain) (Homo sapiens), entry CN(C)C(=O)c1ccc(NC[C@H]2C[C@H]2C2CCN(C(=O)[C@](O)(c3ccccc3)C(F)(F)F)CC2)cc1Cl (single isomer, unassigned) , value?
50

***
Checklist item: Emax tested on glutathione-S-transferase (GST) tagged LXRbeta LBD (ligand binding domain) (Homo sapiens), entry O=C(c1ccc(NCCC[C@@H]2CC23CCN(C(=O)[C@](O)(c2ccccc2)C(F)(F)F)CC3)cc1Cl)N1CCCC1 (single isomer, unassigned) , value?
18

Item: CN(C)C(=O)c1ccc(NCCC[C@H]2CC23CCN(C(=O)[C@](O)(c2ccccc2)C(F)(F)F)CC3)cc1Cl (single isomer, unassigned)
56

Item: CN(C(=O)c1ccc(NCCC[C@@H]2CC23CCN(C(=O)[C@](O)(c2ccccc2)C(F)(F)F)CC3)cc1Cl)C1CC1 (single isomer, unassigned)
43

// data source = patent US10894775B2
